B1: library; numbered along this chain (parent)
chain: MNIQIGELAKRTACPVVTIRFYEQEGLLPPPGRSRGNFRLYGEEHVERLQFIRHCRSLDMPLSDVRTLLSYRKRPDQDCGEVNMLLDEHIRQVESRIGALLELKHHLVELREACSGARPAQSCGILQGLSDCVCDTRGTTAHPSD

Variants of: B1
Test: sfGFP reporter fluorescence (15 h) (µM FITC); higher = stronger transcriptional activation
Settings: library round: Round 0; ligand: 1 µM Pb
sfGFP reporter fluorescence below 0.06 gives not fulfilled; sfGFP reporter fluorescence at or above it gives fulfilled.

Recorded results for 8 variants are shown here.
MNIQIGELAKRTACPVVTIRFYEQEGLLPPPGRSRGNFRLYGEEHVERLQFIRHCRSLDMPLSDVRTLLSYRKRPDQDCGEVNMLLDEHIRQVESRIGALLELVHHCVELREACSGARPAQSCGILQMLSDCVCDTRGTTAHPSD :: fulfilled
MNIQIGELAKRTACPVVTIRFYEQEGLLPPPGRSRGNFRLYGEEHVERLQFIRHCRSLDMPLSDVRTLLSYRKRPDQDCGEVNMLLDEHIRQVESRIGALLELKHHLDELREACSGARPAQSCGILQGLSDCVCDTRGTTAHPSD :: fulfilled
MNIQIGELAKRTACPVVTIRFYEQEGLLPPPGTSRGNFRLYGEEHVERLQFIRHCRSLDMPLSDVRTLLSYRKRPDQDCGEVNMLLDEHIRQVESRIGALLELKHHLVELREACSGARPAQSCGILQGLSDCVCDTRGTTAHPSD :: fulfilled
MNIQIGELAKRTACPVVTIRFYEQEGLLPPPGRSRGNFRLYGEEHVERLQFIRHCRSLDMPLSDVRTLLSYRKRPDQDCGEVNMLLDEHIRQVESRIGALLELKHHLVELREACSGARPAQSCGILQGLSYCVCDTRGTTAHPSD :: fulfilled
MNIQIGELAKRTACPVVTIRFYEQEGLLPPPGRSRGNFRLYGEEHVERLQFIRHCRSRDMPLSDVRTLLSYRKRPDQDCGEVNMLLDEHIRQVESRIGALLELKHHLVELREACSGARPAQSCGILQGLSDCVCDTRGTTAHPSD :: fulfilled
MNIQIGELAKRTACPVVTIRFYEQEGLLPPPGRSRGNFRLYGEEHVERLQFIRHCRSLDMPLSDVRTLLSYRKRPDQDCGEVNMLLDEGIRQVESRIGALLELKHHLVELREACSGARPAQSCGILQGLSDCVCDTRGTTAHPSD :: not fulfilled
MNIQIGELAKRTACPVVTIRFYEQEGLLPPPGRSRGNFRLYGEEHVERLQFIRHCRSLDMPLSDVRTLLSYRKRPDQDCGEVKMLLDEHIRQVESRIGALLELKHHLVELREACSGARPAQSCGILQGLSDCVCDTRGTTAHPSD :: fulfilled
MNIQIGELAKRTACPVVTIRFYEQEGLLPPPGRSRGNFRLYGEEHVEALQFIRHCRSLDMPLSDVRTLLSYRKRPDQDCGEVNMLLDEHIRQVESRIGALLELKHHLVELREACSGARPAQSCGILQGLSDCVCDTRGTTAHPSD :: not fulfilled

Could you now look at the following variant, please?
Is sfGFP reporter fluorescence at least 0.06? Consider "MNIQIGELAKRTACPVVTIRFYEQEGLGPPPGRSRGNFRLYGEEHVERLQFIRHCRSLDMPLSDVRTLLSYRKRPDQDCGEVNMLLDEHIRQVESRIGALLELKHHLVELREACSGARPAQSCGILQGLSDCVCDTRGTTAHPSD" not fulfilled

Origin of values: the supplement of paper PMC12783771
